- assay_method_text: Parallel artificial membrane permeability assay (PAMPA)
- Type: in vitro ADME
- test_context: PAMPA, Table 3; donor pH 6.5, acceptor pH 7.4, 5 h
assay_metric: Papp at 5 h, 1 µM
The reply should consist of the numeric value with the unit placed after it.

Examples with answers:
molecule: CC(=O)Nc1ccc(OCC(=O)NCCc2nc3ccccc3[nH]2)cc1
Papp at 5 h, 1 µM: 0.21 ×10⁻⁶ cm/s

molecule: C=CCCn1c(CCNC(=O)COc2ccccc2)nc2ccccc21
Papp at 5 h, 1 µM: 9.06 ×10⁻⁶ cm/s

molecule: O=C(COc1cccc([N+](=O)[O-])c1)NCCc1nc2ccccc2[nH]1
Papp at 5 h, 1 µM: 2.17 ×10⁻⁶ cm/s

Please state Papp at 5 h, 1 µM for every molecule in the list that follows.
1. O=C(COc1ccc2cc(C(=O)O)ccc2c1)NCCc1nc2ccccc2[nH]1
2. O=C(COc1ccc2cc(O)ccc2c1)NCCc1nc2ccccc2[nH]1
3. CC(=O)Nc1cccc(OCC(=O)NCCc2nc3ccccc3[nH]2)c1
4. O=C(COc1ccccc1)NCCc1nc2ccccc2n1CCOc1ccccc1
5. O=C(COc1ccccc1)NCCc1nc2ccccc2n1CCCOc1ccccc1
6. O=C(Cn1ccnc1[N+](=O)[O-])NCc1ccccc1 [BZ, benznidazole, reference compound]
7. O=C(COc1ccccc1)NCCc1nc2ccccc2n1Cc1ccccc1

### Response
1. 0.83 ×10⁻⁶ cm/s
2. 0.21 ×10⁻⁶ cm/s
3. 0.17 ×10⁻⁶ cm/s
4. 4.3 ×10⁻⁶ cm/s
5. 2.29 ×10⁻⁶ cm/s
6. 3.17 ×10⁻⁶ cm/s
7. 8.72 ×10⁻⁶ cm/s

Please state Papp at 5 h, 1 µM for every molecule in the list that follows.
1. Nc1cccc(OCC(=O)NCCc2nc3ccccc3[nH]2)c1
2. NC(=O)Cn1c(CCNC(=O)COc2ccccc2)nc2ccccc21
3. COc1ccc2cc(OCC(=O)NCCc3nc4ccccc4[nH]3)ccc2c1
4. O=C(COc1ccc2ccc(O)cc2c1)NCCc1nc2ccccc2[nH]1
5. Cn1c(CCNC(=O)COc2ccccc2)nc2ccccc21
6. O=C(COc1ccccc1)NCCc1nc2ccccc2[nH]1

### Response
0.38 ×10⁻⁶ cm/s
0.71 ×10⁻⁶ cm/s
0.34 ×10⁻⁶ cm/s
0.17 ×10⁻⁶ cm/s
1.46 ×10⁻⁶ cm/s
4.21 ×10⁻⁶ cm/s
